Each recorded value in this set is attributed to PubChem BioAssay (NCI).

# System: OVCAR-5 ovarian
# protocol-description: NCI tumour cell line growth inhibition, 48 h
reported-metric: TGI

Recorded TGI, per entry:
O=C(NCCCCCCNC(=O)OCCSCCn1cc(C(=O)NC(=O)OCc2ccccc2)c(=O)[nH]c1=O)OCCSCCn1cc(C(=O)NC(=O)OCc2ccccc2)c(=O)[nH]c1=O: > 100 µM
CC(C)=c1sc(=C(C)C)c2c1=NC(C)(C)N=2: > 100 µM
CCCCCCCCCCCCOC1C(C(COC2OC(C3COC(C)(C)O3)C3OC(C)(C)OC23)NC(=O)NS(=O)(=O)c2ccccc2)OC2OC(C)(C)OC21 (centres undefined): 13.8 µM

Please give measured TGI of the following entry: O=C(O)CCSC(=O)Nc1ccccc1F > 100 µM

Please give measured TGI of the following entry: N#CC1=C(N)Oc2c(sc3c(Br)cccc23)C1c1ccc(Br)cc1 (centres undefined) 14.3 µM

Please give measured TGI of the following entry: CCN(C(C)=O)c1cnc(/C=N/NC(N)=S)c2ccccc12 > 100 µM
